- target-entity: CIB1 and αIIb interaction (CIB1-GST : F-αIIb peptide) (Homo sapiens)
- Construct: made in house; host or cells: BL-21 plus RIL cells (E. coli)
- assay-explanation: FP assay, 1536-well qHTS format (primary and confirmatory screen)
- Assay type: binding
- condition-info: qHTS primary screen hits, Table S2; negative = inhibition
result-type: Efficacy (%)
Answer format: numeric, % implied, no suffix.

Examples with answers:
1. Cc1cc(NS(=O)(=O)c2ccc(Nc3nc(-c4ccc(C)c(C)c4)cs3)cc2)no1.O=C(O)C(F)(F)F ... -32
2. O=C1NC(c2ccc(N3CCOCC3)cc2)(c2ccsc2)CC(O)=C1Sc1ccccc1Cl (centres unmarked) ... -27

Next up:
CIB1 and αIIb interaction (CIB1-GST : F-αIIb peptide) (Homo sapiens) assay, compound C#CCOC(=O)NCCCC[C@H](N)C(=O)O , recorded Efficacy (%) = -24

----------
- target-entity: CIB1 and αIIb interaction (GST-CIB1 : F-αIIb peptide) (Homo sapiens, UniProt Q99828)
- Construct: made in house; host or cells: BL-21 plus RIL cells (E. coli)
- assay-explanation: FP assay, 96-well format (assay development)
- Assay type: binding
- condition-info: GST-CIB1 1 μM, F-αIIb peptide 100 nM, pre-incubated 1 h, read-out: half maximal inhibitory concentration (IC50)
Where no end group is shown, it is not given here.
result-type: IC50

The reported value for Ac-LVLAMWKVGFFKRNRK [unlabeled αIIb peptide, reference compound] in terms of IC50 is 11.2 µM

----------
- target-entity: GST-CIB1 : F-scrambled peptide (Homo sapiens)
- Construct: made in house; host or cells: BL-21 plus RIL cells (E. coli)
- assay-explanation: FP scrambled-peptide counter screen, 1536-well format
- Type: binding
- condition-info: Table S3, counterscreen; negative = inhibition
Response key: rule met means Efficacy (%) (counterscreen) >= -20%; rule not met means Efficacy (%) (counterscreen) < -20%.

Worked examples, 5 compounds total:
1. NS(=O)(=O)c1ccc(Cc2c(-c3ccc(F)c(-c4ccc(F)cc4)c3)nn(-c3nc(C(=O)O)cs3)c2C2CC2)cc1F.O=C(O)C(F)(F)F [NCGC00381623-01] ... rule met
2. CNc1oc(-c2c[nH]c3ccccc23)nc1C#N.O=C(O)C(F)(F)F [NCGC00262511-01] ... rule not met
3. O=C(O)C(F)(F)F.O=C1CCCC2=C1C(c1ccncc1)N=C(Nc1nc3ccccc3o1)N2 (stereo not shown) [NCGC00188839-01] ... rule met
4. Cc1cc(NS(=O)(=O)c2ccc(NC(=O)Cc3cccc4ccccc34)cc2)no1.O=C(O)C(F)(F)F [NCGC00244880-01] ... rule not met
5. COc1cccc(C(=O)c2no[n+]([O-])c2C(=O)c2cccc(OC)c2)c1 [NCGC00351157-02] ... rule not met

input: hey, is Efficacy (%) (counterscreen) for this one >= -20%? CC(C)c1nc(Nc2nc3ccccc3o2)nc2c1CCCC2.O=C(O)C(F)(F)F [NCGC00188040-01]
output: rule not met

input: Does O=C(O)C(F)(F)F.Oc1cccc2cc(C3CC3)cnc12 [NCGC00188747-01] have a reported Efficacy (%) (counterscreen) of at least -20%?
output: rule not met

----------
- target-entity: CIB1 and αIIb interaction (CIB1-GST : F-αIIb peptide) (Homo sapiens, UniProt Q99828)
- Construct: made in house; host or cells: BL-21 plus RIL cells (E. coli)
- Sequence (Q99828 1-191): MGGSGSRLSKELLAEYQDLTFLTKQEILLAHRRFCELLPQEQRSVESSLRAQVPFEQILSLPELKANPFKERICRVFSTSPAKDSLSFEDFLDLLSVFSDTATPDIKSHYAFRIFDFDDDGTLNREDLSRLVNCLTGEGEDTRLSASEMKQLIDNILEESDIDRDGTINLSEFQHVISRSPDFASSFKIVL
- assay-explanation: FP assay, 1536-well qHTS format (primary and confirmatory screen)
- Format: binding
- condition-info: qHTS FP screen hits, Table S2; negative = inhibition
Some compounds, each annotated with its measured Efficacy (%).
Note: unit % is implicit; provide only the numeric part.

Solved entries (count: 3):
1. C=CCNc1oc(-c2ccc(Cl)cc2)nc1C#N.O=C(O)C(F)(F)F ... -54
2. COc1ccccc1Nc1ccc2c(O)cc(S(=O)(=O)O)cc2c1.O=C(O)C(F)(F)F ... -41
3. Cn1c(NC2=NC3(CCCC3)C3=C(CCCC3=O)N2)nc2ccccc21.O=C(O)C(F)(F)F ... -27

Entry COc1nc2ccc(Br)cc2cc1[C@@H](c1ccccc1)[C@@](O)(CCN(C)C)c1cccc2ccccc12 — recorded Efficacy (%) = -64

----------
- target-entity: CIB1 and αIIb interaction (CIB1-GST : F-αIIb peptide) (Homo sapiens)
- Construct: made in house; host or cells: BL-21 plus RIL cells (E. coli)
- assay-explanation: FP assay, 1536-well qHTS format (primary and confirmatory screen)
- Type: binding
- condition-info: qHTS primary screen hits, Table S2; read-out: IC50
Please note: IC50 exactly at 40 µM is f. Only values below 40 µM get t.

Past entries and their recorded results:
1. Cc1ccc(S(=O)(=O)Nc2cc(S(=O)(=O)c3ccc(C)cc3)c(O)c3cccnc23)cc1 [NCGC00161699-01] ... f
2. O=C1NC(c2ccc(N3CCOCC3)cc2)(c2ccsc2)CC(O)=C1Sc1ccccc1Cl (stereo not drawn) [NCGC00388532-05] ... t

input: # check: IC50 < 40 µM for O=C(CN1C(=O)N/C(=C\c2cn(-c3cccc(C(=O)O)c3)cn2)C1=O)Nc1ccc(Cl)cc1 [NCGC00182401-01]
output: f

input: Find out if reported IC50 for CNC(=S)N/N=C1\C(=O)Nc2ccccc21.O=C(O)C(F)(F)F [NCGC00229528-01] is less than 40 µM
output: t

input: Decide: IC50 of O=C(O)C(F)(F)F.O=C1CCCC2=C1C(c1ccn[nH]1)N=C(Nc1nc3ccccc3o1)N2 (stereo not drawn) [NCGC00229725-01] strictly below 40 µM?
output: t

----------
- target-entity: CIB1 and αIIb interaction (CIB1-GST : F-αIIb peptide) (Homo sapiens)
- Construct: made in house; host or cells: BL-21 plus RIL cells (E. coli)
- assay-explanation: FP assay, 1536-well qHTS format (primary and confirmatory screen)
- Format: binding
- condition-info: qHTS primary screen hits, Table S2; negative sign = inhibitory curve; several classes where COUNT > 1
result-type: Curve Class
Format: numeric value only, no unit, no commentary.

Below, 3 compounds whose answers are already recorded.
1) Cc1ccc(S(=O)(=O)Nc2cnccc2C(=O)Nc2nc(C(=O)O)cs2)cc1.O=C(O)C(F)(F)F ... -2.4
2) Cc1ccc(S(=O)(=O)Nc2cnccc2C(=O)Nc2nc3ccccc3s2)cc1.O=C(O)C(F)(F)F ... -1.2
3) Nc1cc(-c2ccncc2)c[nH]c1=O ... -2.2

Next item in the queue.
For C=CCNc1oc(-c2ccc(F)cc2)nc1C#N.O=C(O)C(F)(F)F the compound record lists Curve Class as -2.4

----------
Parameter: CONFIRMATORY SCREEN Curve Class. Scope: all listed entries.
- target-entity: CIB1 and αIIb interaction (CIB1-GST : F-αIIb peptide) (Homo sapiens)
- Construct: made in house; host or cells: BL-21 plus RIL cells (E. coli)
- assay-explanation: FP assay, 1536-well qHTS format (primary and confirmatory screen)
- Assay type: binding
- condition-info: confirmatory screen, qHTS curve class; negative sign = inhibitory curve
Keep the answer to the number alone.

Use the examples below as a reference point.
1. O=c1[nH]sc2cc(Cl)ccc12 [NCGC00262908-01, ticlatone, reference compound] ... -1.2
2. COc1ccccc1S(=O)(=O)Nc1cnccc1C(=O)Nc1nc(-c2ccccc2)cs1.O=C(O)C(F)(F)F ... -2.2
3. O=c1oc2ccccc2c(O)c1C(CC(O)c1ccc(-c2ccc(Br)cc2)cc1)c1ccccc1 (stereo not shown) ... -1.2
4. O=C(O)C1=NC(C(=O)O)CC(/C=C/N2c3cc(O)c(OC4OC(CO)C(O)C(O)C4O)cc3CC2C(=O)O)=C1 (stereo not shown) ... -2.2
5. Cc1ccc(S(=O)(=O)Nc2cnccc2C(=O)Nc2nc(-c3cccc(C)c3)cs2)cc1.O=C(O)C(F)(F)F ... -2.1
6. Cc1ccc(S(=O)(=O)Nc2cnccc2C(=O)Nc2nc(-c3cccc(Cl)c3)cs2)cc1.O=C(O)C(F)(F)F ... -1.1

Form: compound = CCc1oc2ccccc2c1C(=O)c1cc(I)c(O)c(I)c1 ; CONFIRMATORY SCREEN Curve Class = -1.2

----------
- target-entity: GST-CIB1 : F-scrambled peptide (Homo sapiens, UniProt Q99828)
- Construct: made in house; host or cells: BL-21 plus RIL cells (E. coli)
- assay-explanation: FP scrambled-peptide counter screen, 1536-well format
- Format: binding
- condition-info: scrambled-peptide counterscreen; read-out: COUNTERSCREEN IC50
result-type: log10 of IC50 (log10 of the value in µM)
Note the log scale: values are log10 of IC50 expressed in µM.

1) O=C(O)C(F)(F)F.O=c1c2ccccc2nc2sc(NS(=O)(=O)c3ccc4c(c3)CCC4)nn12 ... 1.55
2) Cc1cc(SCc2sc(-c3ccc(Cl)c(Cl)c3)nc2C)ccc1OCc1nnn[nH]1.O=C(O)C(F)(F)F ... 1.90
3) Cc1ccc(S(=O)(=O)Nc2cnccc2C(=O)Nc2nc(-c3ccccc3)cs2)cc1.O=C(O)C(F)(F)F ... 1.95
4) CCc1oc2ccccc2c1C(=O)c1cc(Br)c(O)c(Br)c1 ... 1.30
5) O=C(Cc1ccc(Cl)c(Cl)c1)Nc1ccc(S(=O)(=O)Nc2nnc(-c3ccccn3)s2)cc1.O=C(O)C(F)(F)F ... 1.90

Query CCOC(=O)N1CCN([N+]([O-])=NOc2ccc([N+](=O)[O-])cc2[N+](=O)[O-])CC1 yields log10 of IC50 of 1.65

For CC(=O)Oc1cccc2c1C(=O)c1c(OC(C)=O)cc(C(=O)O)cc1C2=O the compound record lists log10 of IC50 as 1.70

response.value for CCc1nnc(NS(=O)(=O)c2ccc(NC(=S)NC(=O)/C=C/c3ccc(F)cc3)cc2)s1 (field: log10 of IC50) = 1.85

O=C1C(I)=CC(=C(c2cc(I)c([O-])c(I)c2)c2ccccc2C(=O)[O-])C=C1I.[Na+].[Na+] yielded log10 of IC50 of 1.95

The recorded log10 of IC50 for COc1cccc(-c2csc(NC(=O)c3ccncc3NS(=O)(=O)c3ccc(C)cc3)n2)c1 is 1.95

// recorded log10 of IC50 for CCc1oc2ccccc2c1C(=O)c1cc(I)c(O)c(I)c1 : 1.05

Entry under test: Cc1cc(NS(=O)(=O)c2ccc(NCCc3ccc(Cl)c(Cl)c3)cc2)no1.O=C(O)C(F)(F)F . Its log10 of IC50 was 1.60

According to the records, this compound O=c1oc2ccccc2c(O)c1C(CC(O)c1ccc(-c2ccc(Br)cc2)cc1)c1ccccc1 (stereo not drawn) displays log10 of IC50 of 1.95

GET /value?item= COc1cccc(-n2c(SCc3cc(=O)oc4cc(O)c(O)cc34)nc3ccccc3c2=O)c1.O=C(O)C(F)(F)F &field=log10 of IC50 returns 0.95
